Origin of the recorded values: ChEMBL document CHEMBL4014332

Organism: Rattus norvegicus
Test: Inhibition of 5-LOX-mediated LTB4 production in arachidonic acid-stimulated RBL1 cells at 10 uM preincubated for 2 hrs followed by A23187 induction for 15 mins by LC/MS/MS analysis relative to control
What inhibition was measured for each of the following?
Answer with the number, then the unit.

inhibition recorded for this compound, Fc1ccc(F)c(-c2cnc(Cl)n2-c2ccc(OC(F)(F)F)cc2)c1F , is 80%

inhibition recorded for this compound, Clc1ccc(-n2c(-c3ccccc3)cnc2Cl)cc1 , is 52%

inhibition recorded for this compound, COc1ccc(F)c(-c2c(Cl)nc(Cl)n2-c2ccc(Cl)cc2)c1F , is 88%

inhibition recorded for this compound, Cc1ncn(-c2ccc(Cl)cc2)c1-c1c(F)ccc(Cl)c1F , is 71%

inhibition recorded for this compound, Cc1ccc(F)c(-c2c(Cl)ncn2-c2ccc(Cl)cc2)c1F , is 78%

inhibition recorded for this compound, Cc1cc(F)c(-c2c(Cl)ncn2-c2ccc(Cl)cc2)c(F)c1 , is 75%

inhibition recorded for this compound, Fc1ccc(-c2c(Cl)ncn2-c2ccc(Cl)cc2)cc1 , is 59%

inhibition recorded for this compound, Fc1cc(Cl)ccc1-n1cnc(Cl)c1-c1c(F)cccc1F , is 14%

inhibition recorded for this compound, Fc1cccc(F)c1-c1cncn1-c1ccc(OC(F)(F)F)cc1 , is 55%

inhibition recorded for this compound, Cc1cc(F)c(-c2c(Cl)nc(Cl)n2-c2ccc(Cl)cc2)c(F)c1 , is 63%

inhibition recorded for this compound, COc1ccc(F)c(-c2c(Cl)ncn2-c2ccc(Cl)cc2)c1F , is 91%
